Biological target: T1, SARS-COV-2 RBD (SARS-COV-2, UniProt P0DTC2 319-539)
T1 construct: also called WT RBD
Assay: ELISA, RBD coated on plate

BINDER	EC50, ng/mL
C1023 (antibody, V domains shown) VH: QVQLVQSGAEMKKPGASVKISCKASGDTFTTNYFHWVRQAPGQGLEWMGIINPSAGSTTYAQRFQGRVTMTGDSSTNTVYLELRSLRSEDTAMYFCAKGSYIPAMRSSFDPWGQGTLVTVSS VL: EIVLTQSPGTLSLSPGERATLSCRASQSVSHRYLAWYQQKPGQAPRLLIDGASNRATGIPDRFSGSGSGTDFTLTISRLEPEDFGVYYCQQYGSSPPFTFGQGTKLEIK	1.13
C995 (antibody, V domains shown) VH: EVQLVESGGGLIQPGRSLRLSCTASGFSVGDYAMSWFRQAPGKGLEWVGFLRNQHYGGTAEYAASVKGRFSISTDASKNIVYLQMDSLKTEDTAVYYCARNDRYIVIVPAEMLYWGQGTLVTVSS VL: EIVMTQSPATLSVSPGERATLSCRATESVYSNLAWYQQKPGQAPRLLMYDASTRAPGIPARFSGSGSGTEFTLTISSLQSEDFATYYCQQYSNWPPITFGQGTRLEIK	3.79
C1020 (antibody, V domains shown) VH: QVQLVQSGAEVKKPGASVKISCKASGYSFSNYYIHWVRQAPGQGLEWMGIINPSGNSISYAQKFQGRVTMTGDTSTSTVYMELSSLRSEDTAVYYCARSVFPVPAAGGCDYWGQGTLVTVSS VL: DIQMTQSPSSLSASVGDRVTITCRASQSITTSLNWYQQKPGKAPKLLIYSASTLESGVPSRFSGSGSGTDFTLTISSLQPEDFATYYCQQTYRAPPYTFGQGTKLEIK	2.06
C1010 (antibody, V domains shown) VH: QVQLVESGGGVVQPGRSLRLSCAASGFTFSSYAMHWVRQAPGKGLEWVAVISYDGSNKYYADSVKGRFTISRDNSKNTLYLQMNSLRAEDTAVYYCAKKGQPYCGGDCYFYYFDYWGQGTLVTVSS VL: DIQMTQSPSSLSASLGDRVTITCQASQDISNYLNWYQQKPGKAPKLLIYDASNLETGVPSRFSGSGSGTDFTFTISSLQPEDIATYYCQQYDNLPPITFGQGTRLEIK	2.45
C924 (antibody, V domains shown) VH: QVQLVESGGGVVQPGRSLRLSCAASGFTFSSYGMHWVRQAPGKGLEWVAVISDDGSNKYYADSVKGRFTISRDNSKNTLYLQMNSLRAEDTAVYYCAKSWWLSENWFDPWGQGTLVTVSS VL: EIVMTQSPATLSVSPGERATLSCRASQSVSSNLAWYQQKPGQAPRLLIYGASTRATGIPARFSGTGSGTEFTLTISSLQSEDFAVYYCQQYNNWPLTFGGGTKVEIK	2.5
C940 (antibody, V domains shown) VH: QVQLQESGSGLVKPSQTLSLTCAVSGGSASSGGYSWSWIRQPPGKGLEWIGYIYHSGSTYYNPSLKSRVTISLDRTKKQFSLKLSSVTAADTAVYYCARFCLSGSHYLFAFDIWGPGTMVTVSS VL: QSALTQPASVSGSPGQSITISCTATSSDVGGYNFVSWYQQYPGKVPKLLIYDVGNRPSGVSNRFSGSKSGNTASLTISGLQAEDEADYYCSSYTNSSTFFGGGTKLTVL	1.8
C1060 (antibody, V domains shown) VH: EVQLVESGGDLVQPGGSLRLSCAASEIIVSRNYMNWVRQAPGKGLEWVSIIYSGGSTFYGDSVKGRFTISRDSSKNTLYLQMHGLRVEDTAIYYCARSYGDYYIDYWGQGTLVTVSS VL: DIQMTQSPSSVSASVGDRVTITCRTSQSISTSLAWYQQKPGKAPKLLIYAASSLQRGVPSRFSGTGSGTDFTLTISSLQPEDFATYYCQQSSSSPPLFTFGPGTKVDIK	2.67
C1043 (antibody, V domains shown) VH: EVQLVESGGGLVQPGRSLRLSCAASGFIFDNYAMHWVRQAPGKGLEWVSGISWNSDSIGYADSVKGRFTISRDNAKNSLYLQMSSLRAEDTALYYCAKDLLGNYYYYTLDVWGQGTTVTVSS VL: QSALTQPASVSGSPGQSITISCTGTSSDIGGNNYVSWYQQHPGKAPRLMIFDVSYRPSGVSNRFSGSKSGNTASLTISGLQAEDEADYYCISYTTSSTLGVFGGGTKLTVL	2.77
C1038 (antibody, V domains shown) VH: QVQLVQSGAEVKKPGASVKVSCKASGYTFTSYYMHWVRQAPGQGLEWMGIINPSGGSTRYAQKFQGRVTMTRDTSTSTVYMELSSLRSEDTAVYYCAREGVGGTSYFDYWGQGTLVTVSS VL: SYELTQPPSVSVAPGKTARITCGGNNIGSKSVHWYQQKPGQAPVLVVYDDSDRPSGIPERFSGSNSGNTATLTISRVEAGDEADYYCQVWDSSSDPYVFGTGTKVTVL	2.46
C1051 (antibody, V domains shown) VH: EVQLVESGGGLVQPGRSLRLSCVASGFTFDDYGLHWVRQAPGKGLEWVSGISWNSDSIGYADSVKGRFAISRDNARTSLYLQMNRLRAEDTALYYCAKAASRSTRIGGAFDIWGQGTMVTVSS VL: QSALTQPASVSGSPGQSITISCTGTSSDVGGYNLVSWYQQYPGKAPKLMIYEDSKRPSGVSHRFSGSKSGNTASLTISGLQAEDEADYYCCSYAFSFTNVFGTGTKVTV	1.4
